These data points were gathered from a melting point compilation (Tetko et al.; mined from patent text by program, amines drawn as free bases though some values may be those of a salt).

List of melting point values.
readout-type: melting point

{"compound": "O=C(OCc1ccccc1)c1ncn2c1[C@@H]1CCCN1C(=O)c1c(Cl)cccc1-2", "result": "141 to 142 °C"}
{"compound": "N=c1nc(Nc2ccccc2)nc2[nH]c3ccccc3n12", "result": "> 300 °C"}
{"compound": "CCOC(=O)Cc1ccc(NCCNC(=O)C2Cc3ccccc3N2S(=O)(=O)c2ccc(-c3cc(C(F)(F)F)ccc3Cl)cc2)cc1 (stereo not given)", "result": "55 to 63 °C"}
{"compound": "CC1(C)CCC(C)(C)c2cc(C3NC(=O)NC3=O)ccc21 (stereo not given)", "result": "213 to 214 °C"}
{"compound": "COc1cc(COc2nn(Cc3ccc(Oc4ccccc4)cc3)cc2C(N)=O)ccc1OCc1nc(-c2ccco2)oc1C", "result": "105 to 106 °C"}
